Hi there, I'd appreciate the recorded protein stability index for every entry that follows.
B1: APBB1IP (parent)
chain: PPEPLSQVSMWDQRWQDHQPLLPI

# Variants of: B1
# assay.overview: protein stability index of a GFP-peptide fusion (GPS, HEK-293T) (PSI 1-6); higher = more stable;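 further: lentivirally expressed fusions sorted by FACS into six bins by GFP to DsRed ratio, PSI derived from sequencing read proportions per bin multiplied by bin number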
# condition.set: c terminus: a fixed tail appended
Write the number on its own, no unit after it.

Query: Would you mind telling me what protein stability index value was observed for "L22Y" ?
Result: 2.44

Query: Using the record for "M10D" , report its protein stability index.
Result: 4.12

Query: protein stability index for "S9I" ?
Result: 2.86

Query: Can you look up the measured protein stability index of "P1C" for me?
Result: 2.34

Query: Tell me the measured protein stability index of "P4M" , please.
Result: 2.79

Query: Value lookup for protein stability index; key = "S6E"
Result: 3.15

Query: Value lookup for protein stability index; key = "P23E"
Result: 3.03

Query: // query protein stability index value for entry "V8A"
Result: 3.02

Query: Using the record for "P20N" , report its protein stability index.
Result: 3.14

Query: So what's the measured protein stability index for this one? "P4I"
Result: 2.52

Query: What protein stability index value was documented for this variant, "Q19L" ?
Result: 2.83

Query: Data request, read-out protein stability index, for "Q16G"
Result: 2.98

Query: Entry "V8H" has what protein stability index?
Result: 3.21

Query: What measured protein stability index goes with "S6R" ?
Result: 3.36

Query: Report protein stability index for "L5T" please.
Result: 3.19

Query: # query: protein stability index of entry "Q19S"
Result: 2.31

Query: Need protein stability index of "V8M" , thanks.
Result: 3.22

Query: // lookup protein stability index for "P1S"
Result: 2.87
